The measurements presented in this section are drawn from patent US11833144B2.

- Test system: murine B cells
- experiment: Murine B cell proliferation (CellTrace Violet, cell number) and class switch to IgG1 in vitro
- Format: cell-based, mouse
- measurementConditions: LPS/IL-4; SSI-4 with exogenous fatty acid
parameter: rescue of proliferation and IgG1 class switch upon SSI-4 treatment

CCCCCCCCCCCCCCCC(=O)O | no rescue effects
CCCCCCCCCCCCCCCCCC(=O)O | no rescue effects
